B1: PhoQ; a variant is named by its letters at X, in order, P23837 (parent)
chain: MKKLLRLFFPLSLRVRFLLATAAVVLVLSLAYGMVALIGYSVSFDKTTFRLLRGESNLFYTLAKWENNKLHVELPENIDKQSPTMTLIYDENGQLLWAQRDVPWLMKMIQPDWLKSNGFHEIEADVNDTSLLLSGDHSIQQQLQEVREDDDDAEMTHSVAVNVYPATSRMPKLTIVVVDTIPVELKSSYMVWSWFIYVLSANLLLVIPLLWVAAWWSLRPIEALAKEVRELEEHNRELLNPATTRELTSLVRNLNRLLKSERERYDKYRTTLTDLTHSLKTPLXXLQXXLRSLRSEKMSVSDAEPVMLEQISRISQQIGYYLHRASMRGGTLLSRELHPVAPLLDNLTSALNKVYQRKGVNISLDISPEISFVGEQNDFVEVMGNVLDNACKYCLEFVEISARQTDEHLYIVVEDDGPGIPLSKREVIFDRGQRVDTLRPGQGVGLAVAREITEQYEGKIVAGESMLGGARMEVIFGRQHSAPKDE

# Variants of: B1
# assay.notes: enrichment ratio after two sorts for PhoP signalling (ratio (wild type AVST 3.29)); higher = more functional
# assay.conditions: with PhoP (E. coli)
Whole data set: some 140,000 sequences, median “enrichment ratio after two sorts for PhoP signalling” near 0, cut for the highest 2% near 11. Shown is part of a subset that was picked to be rich in the highest values.
quantity.kind: enrichment ratio

# example entries with known answers
SYVA ≤ 0.25
WIAI ≤ 0.25
HLKR ≤ 0.25
WRCP ≤ 0.25
TIAT 10.2

Need enrichment ratio, item "AIAI"
12.7

Need enrichment ratio, item "FWLA"
≤ 0.25

Need enrichment ratio, item "AHMR"
≤ 0.25

Need enrichment ratio, item "YERM"
≤ 0.25
